# Tested on: U2OS
# experiment: Multiplex assay against U2OS
# Assay type: toxicity, cell-based
# run_parameters: human, 48 h, 10 µM, compound concentration 10 uM, replicate 2
measure_name: Population Healthy Nuclei (%)

The recorded Population Healthy Nuclei (%) for Cc1cnc(-c2cc(N3CCN(C(=O)CCS(C)(=O)=O)CC3)ncc2Cl)c(C)c1 is 71%

The recorded Population Healthy Nuclei (%) for CCCCC1=NC2(CCCC2)C(=O)N1Cc1ccc(-c2ccccc2-c2nnn[nH]2)cc1 [IRBESARTAN] is 72%

The recorded Population Healthy Nuclei (%) for COC[C@@H](c1ccc(C(F)(F)F)cc1)N1CCN(C2(C)CCN(C(=O)c3c(C)ncnc3C)CC2)C[C@@H]1C.O=C(O)/C=C\C(=O)O [VICRIVIROC MALEATE] is 68%

###

# Test system: HEK-293T
# experiment: Multiplex assay against HEK293T
# Assay type: toxicity, cell-based
# run_parameters: human, 24 h, 1 µM, compound concentration 1 uM, replicate 2
Provide the reported Population Hoechst High Intensity Objects (%) of each item.
Record the value in %, omitting the unit from your answer.

The recorded Population Hoechst High Intensity Objects (%) for N#Cc1cc(F)cc(-c2nc(-c3ccc(F)cn3)no2)c1 is 7

The recorded Population Hoechst High Intensity Objects (%) for COc1cccc2c1c(NS(=O)(=O)c1ccc(Cl)s1)nn2Cc1cccc(CNC(=O)C(C)(C)O)c1 is 7

The recorded Population Hoechst High Intensity Objects (%) for Cc1noc(-c2ccc(-c3ccc(CC(=O)O)cc3)cc2)c1NC(=O)O[C@H](C)c1ccccc1Cl is 7

###

Provide the reported Population Membrane Permeable-Phenotype (%) of each item.
# Test system: Fibroblast
# experiment: Multiplex assay against human fibroblast
# Format: toxicity, cell-based
# run_parameters: 48 h, 10 µM, compound concentration 10 uM, replicate 1
Record the value in %, omitting the unit from your answer.

The recorded Population Membrane Permeable-Phenotype (%) for CCc1cc2cc(NS(=O)(=O)c3ccc(C#N)cc3)ccc2n(CC)c1=O is 1

The recorded Population Membrane Permeable-Phenotype (%) for N#Cc1c(Oc2cccc(OS(=O)(=O)CCCC(F)(F)F)c2)cccc1C(F)(F)F is 2

The recorded Population Membrane Permeable-Phenotype (%) for N#Cc1cc(F)cc(-c2nc(-c3ccc(F)cn3)no2)c1 is 0

The recorded Population Membrane Permeable-Phenotype (%) for Cc1onc(-c2ccccc2Cl)c1C(=O)N(C)c1ccc(Cl)cc1 is 0

The recorded Population Membrane Permeable-Phenotype (%) for Cl.N=C(N)NC(=O)Cc1c(Cl)cccc1Cl [GUANFACINE HYDROCHLORIDE] is 1

The recorded Population Membrane Permeable-Phenotype (%) for O=C(NCCN1CCC(n2c(=O)[nH]c3cc(Cl)ccc32)CC1)c1ccc(F)cc1 [HALOPEMIDE] is 0

The recorded Population Membrane Permeable-Phenotype (%) for CCCCCC(O)/C=C/[C@H]1C(=O)CC(O)C1C/C=C\CCCC(=O)O (stereo not given in full) is 0

The recorded Population Membrane Permeable-Phenotype (%) for Cc1cnc(-c2cc(N3CCN(C(=O)CCS(C)(=O)=O)CC3)ncc2Cl)c(C)c1 is 0

The recorded Population Membrane Permeable-Phenotype (%) for CC(=O)Nc1cccc2c1c(Sc1ccc(Cl)cc1)c(C)n2CC(=O)O is 0

The recorded Population Membrane Permeable-Phenotype (%) for NCCc1cn(S(=O)(=O)c2c(Cl)nc3sccn23)c2ccccc12.O=C(O)C(=O)O is 0

The recorded Population Membrane Permeable-Phenotype (%) for O=C1[C@H](Cc2ccc(O)cc2)N2C(=O)CCN(C(=O)NCc3ccccc3)[C@H]2CN1Cc1cccc2ccccc12 is 0

The recorded Population Membrane Permeable-Phenotype (%) for CC(/C=C1\SC(=S)N(CCCC(=O)Nc2ccc(C(=O)O)c(O)c2)C1=O)=C\c1ccccc1 is 0

The recorded Population Membrane Permeable-Phenotype (%) for COc1ccccc1N1CCN(C[C@@H](C(=O)NC(C)(C)C)c2ccccc2)CC1.Cl.Cl is 0

The recorded Population Membrane Permeable-Phenotype (%) for COc1cccc2c1c(NS(=O)(=O)c1ccc(Cl)s1)nn2Cc1cccc(CNC(=O)C(C)(C)O)c1 is 3

The recorded Population Membrane Permeable-Phenotype (%) for Cl.NCCc1ccc(O)c(O)c1 [DOPAMINE HYDROCHLORIDE] is 0

The recorded Population Membrane Permeable-Phenotype (%) for CCCOc1ccc2[nH]cc(C3=CCNCC3)c2n1.Cl is 0

The recorded Population Membrane Permeable-Phenotype (%) for CC[C@@H](C)Nc1nc(C)nc2c(-c3ccc(OC)nc3C)c(C)nn12 is 0

The recorded Population Membrane Permeable-Phenotype (%) for CN(C)C(=O)Cn1cc(-c2ccc(-c3cncc4ccccc34)cc2)cn1 is 0

The recorded Population Membrane Permeable-Phenotype (%) for CCCCC1=NC2(CCCC2)C(=O)N1Cc1ccc(-c2ccccc2-c2nnn[nH]2)cc1 is 1

The recorded Population Membrane Permeable-Phenotype (%) for Cc1cccc(NC(=O)CN2CCC(c3ccccn3)CC2)c1.Cl.Cl is 2

meta.source: ChEMBL document CHEMBL5058577
